B1: library; a variant is named by its letters at N, in order (parent)
chain: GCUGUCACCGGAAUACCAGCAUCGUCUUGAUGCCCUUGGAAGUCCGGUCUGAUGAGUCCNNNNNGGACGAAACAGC

# Variants of: B1
# assayRemarks: FACS-Seq fitted mean relative fluorescence mCherry/BFP with ligand (log10 relative fluorescence); ligand concentration (+) FACS-Seq: 1 mM; higher = higher reporter protein expression
# testSettings: HEK293T, ligand present: yes
Each record gets a class by FACS-Seq fitted mean (log10): bin 0 (below 0.6), bin 1 (0.6 to below 0.9), bin 2 (0.9 or more)

[[record]]
mutant = "CUUUC"
grouplabel = "bin 2"

[[record]]
mutant = "AAAGC"
grouplabel = "bin 2"

[[record]]
mutant = "AUGAU"
grouplabel = "bin 0"

[[record]]
mutant = "CUGAU"
grouplabel = "bin 2"

[[record]]
mutant = "CGCAA"
grouplabel = "bin 0"

[[record]]
mutant = "UUUGA"
grouplabel = "bin 1"

[[record]]
mutant = "GUUGU"
grouplabel = "bin 1"

[[record]]
mutant = "UCAAU"
grouplabel = "bin 1"

[[record]]
mutant = "CUGGA"
grouplabel = "bin 2"

[[record]]
mutant = "UUGCC"
grouplabel = "bin 1"

[[record]]
mutant = "ACUCG"
grouplabel = "bin 2"

[[record]]
mutant = "UACCU"
grouplabel = "bin 0"

[[record]]
mutant = "AGAUU"
grouplabel = "bin 1"

[[record]]
mutant = "AGCCG"
grouplabel = "bin 1"

[[record]]
mutant = "AGUGA"
grouplabel = "bin 0"

[[record]]
mutant = "UUACC"
grouplabel = "bin 1"

[[record]]
mutant = "CAAGC"
grouplabel = "bin 0"

[[record]]
mutant = "UCCAC"
grouplabel = "bin 1"

[[record]]
mutant = "AUUGU"
grouplabel = "bin 2"

[[record]]
mutant = "AUGAA"
grouplabel = "bin 0"

[[record]]
mutant = "AAUUC"
grouplabel = "bin 0"

[[record]]
mutant = "CCCUC"
grouplabel = "bin 1"

[[record]]
mutant = "AUUUG"
grouplabel = "bin 0"

[[record]]
mutant = "CGGUC"
grouplabel = "bin 2"

[[record]]
mutant = "AAGUU"
grouplabel = "bin 0"

[[record]]
mutant = "AGAGU"
grouplabel = "bin 0"

[[record]]
mutant = "AGUUA"
grouplabel = "bin 2"

[[record]]
mutant = "AAAUU"
grouplabel = "bin 2"

[[record]]
mutant = "GACAA"
grouplabel = "bin 1"

[[record]]
mutant = "UUUAU"
grouplabel = "bin 0"

[[record]]
mutant = "ACGGC"
grouplabel = "bin 2"

[[record]]
mutant = "AGGUA"
grouplabel = "bin 2"

